// data source = patent US12458605B2

Below is a list of entries, each paired with its recorded PDI value.
assay: Average particle size (ζ-Average) and PDI by dynamic light scattering (Zetasizer Nano ZSP); type: physicochemical; settings: F7siRNA-loaded LNP, 50:10:38.5:1.5, N/P ratio 6
Number only, please.

Reference set (2 entries):
>>> data_value("CCCCC(CC)C(=O)OCCCCCCC(O)(CCCCCCOC(=O)C(CC)CCCC)CCCCN(CCC)CCC (stereo not shown) [CL4F 6-2]")
0.298
>>> data_value("CCCCCCC(CCCCCC)C(=O)OCCCCCCC(O)(CCCCCCOC(=O)C(CCCCCC)CCCCCC)CCCCOC(=O)C1CCN(C)CC1 [CL15F 8-6]")
0.056

Exercise: Entry CCCCCCCC(CCC)C(=O)OCCCCCCC(O)(CCCCCCOC(=O)C(CCC)CCCCCCC)CCCCOC(=O)C1CCN(C)CC1 (stereo not shown) [CL15F 9-3] : reported PDI = ?
Key: 0.172

Exercise: Entry CCCCCCCCCC(CCCCCCC)C(=O)OCCCCCCC(O)(CCCCCCOC(=O)C(CCCCCCC)CCCCCCCCC)CCCCOC(=O)C1CCN(C)CC1 (stereo not shown) [CL15F 11-7] : reported PDI = ?
Key: 0.049

Exercise: Entry CCCCCCC(CCCCCC)C(=O)OCCCCCCC(O)(CCCCCCOC(=O)C(CCCCCC)CCCCCC)CCCCN(CCC)CCC [CL4F 8-6] : reported PDI = ?
Key: 0.010

Exercise: Entry CCCCCCCCC(CCCCCCCC)C(=O)OCCCCCCC(O)(CCCCCCOC(=O)C(CCCCCCCC)CCCCCCCC)CCCCN(CCC)CCC [CL4F 10-8] : reported PDI = ?
Key: 0.007

Exercise: Entry CCCCCCCC(CCC)C(=O)OCCCCCCC(O)(CCCCCCOC(=O)C(CCC)CCCCCCC)CCCCN(CCC)CCC (stereo not shown) [CL4F 9-3] : reported PDI = ?
Key: 0.022

====

assay: Storage stability of FlucmRNA-loaded LNP at −80, 5, 25 and 40° C.; format: physicochemical; conditions: maximum storage period 5 weeks
property.label: period for which quality remained good, 5° C.

>>> data_value("CCCCCCCCC(CCCCCCC)C(=O)OCCCCCCC(O)(CCCCCCOC(=O)C(CCCCCCC)CCCCCCCC)CCCCN(CCC)CCC (stereo not shown) [CL4F 10-7]")
"5 weeks"

Next up:
Exercise: Entry CCCCCCCCCC(CCCCCCC)C(=O)OCCCCCCC(O)(CCCCCCOC(=O)C(CCCCCCC)CCCCCCCCC)CCCCN(CCC)CCC (stereo not shown) [CL4F 11-7] : reported period for which quality remained good, 5° C. = ?
Key: 5 weeks

====

assay: siRNA/mRNA encapsulation rate by Ribogreen reagent (section IV); type: physicochemical; conditions: FlucmRNA-loaded LNP, 50:10:38.5:1.5
property.label: % mRNA encapsulation (%)
Write the value in % as a bare number.

Reference set (5 entries):
>>> data_value("CCCCCCCCCCC(CCCCCCCCCC)C(=O)OCCCCCCC(O)(CCCCCCOC(=O)C(CCCCCCCCCC)CCCCCCCCCC)CCCCOC(=O)C1CCN(C)CC1 [CL15F 12-10]")
99.78
>>> data_value("CCCCCCC(CCCC)C(=O)OCCCCCCC(O)(CCCCCCOC(=O)C(CCCC)CCCCCC)CCCCN(CCC)CCC (stereo not drawn)")
99.7
>>> data_value("CCCCCCC(CCCCC)C(=O)OCCCCCCC(O)(CCCCCCOC(=O)C(CCCCC)CCCCCC)CCCCN(CCC)CCC (stereo not drawn)")
99.1
>>> data_value("CCCCCCCC/C=C\\CCCCCCCC(=O)OCCCCCCC(O)(CCCCCCOC(=O)CCCCCCC/C=C\\CCCCCCCC)CCCCOC(=O)C1CCN(C)CC1 [CL15H6, reference compound]")
83.8
>>> data_value("CCCCCCCCCCCCCCCC(=O)OCCCCCCC(O)(CCCCCCOC(=O)CCCCCCCCCCCCCCC)CCCCN(CCC)CCC")
86.2

Next up:
Exercise: Entry CCCCCCCC/C=C\CCCCCCCC(=O)OCCCCCCC(O)(CCCCCCOC(=O)CCCCCCC/C=C\CCCCCCCC)CCCCN(CCC)CCC [CL4H6, reference compound] : reported % mRNA encapsulation = ?
Key: 80.1
